target: T1, human BACE1 ECD; test: Octet, pH 7.5, second run
T1 construct: analyte of the Octet assay (200 nM) and enzyme of the first short substrate assay; also called human BACE1 extracellular domain
T1 sequence (single chain, as listed by the source limits assumed): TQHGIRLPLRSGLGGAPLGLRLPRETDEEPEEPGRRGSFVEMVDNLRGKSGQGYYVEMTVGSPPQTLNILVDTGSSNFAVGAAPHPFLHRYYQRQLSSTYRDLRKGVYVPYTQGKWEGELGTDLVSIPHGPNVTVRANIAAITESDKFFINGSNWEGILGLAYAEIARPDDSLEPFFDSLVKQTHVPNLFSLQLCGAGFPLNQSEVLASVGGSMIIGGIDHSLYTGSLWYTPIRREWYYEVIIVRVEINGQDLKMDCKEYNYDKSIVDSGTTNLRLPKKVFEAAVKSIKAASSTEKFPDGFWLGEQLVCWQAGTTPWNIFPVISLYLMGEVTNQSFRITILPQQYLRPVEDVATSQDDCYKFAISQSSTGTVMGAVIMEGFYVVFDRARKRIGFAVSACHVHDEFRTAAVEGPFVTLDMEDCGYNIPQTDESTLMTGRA
EXPERIMENTAL READOUT: Kd (nM)
Only the number, expressed in nM, is required.

Dear colleague, I am looking for the recorded Kd of the following binder: 5887 (antibody, V domains shown, anti-BACE1 IgG) VH: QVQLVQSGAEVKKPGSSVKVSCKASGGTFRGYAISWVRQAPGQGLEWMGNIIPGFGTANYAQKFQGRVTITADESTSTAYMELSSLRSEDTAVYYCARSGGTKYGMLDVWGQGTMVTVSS VL: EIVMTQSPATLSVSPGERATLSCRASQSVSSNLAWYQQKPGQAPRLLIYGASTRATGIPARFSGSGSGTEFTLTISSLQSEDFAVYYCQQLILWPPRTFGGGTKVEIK 0.45
